experiment: solvent given as SMILES; settings: in O
Assign labels as follows, please: Met for solvation free energy, 298 K below -1 kcal/mol; Not met for solvation free energy, 298 K equal to or exceeding -1 kcal/mol.

# example entries with known answers
>>> class_label("CCCCCCCCCC")
"Not met"
>>> class_label("CC1=CCCCC1")
"Not met"

Exam item: Confirm or reject: solvation free energy, 298 K of `C=CCO` lies strictly below -1 kcal/mol
Marked response: Met

Exam item: Confirm or reject: solvation free energy, 298 K of `C1COCCO1` lies strictly below -1 kcal/mol
Marked response: Met

====

# solvation free energy, 298 K per record follows
test: solvent given as SMILES; conditions: in CC(C)CO
Value expressed in kcal/mol; do not type the unit.

Some solved cases for reference:
>>> observed_measurement("C(=Cc1ccccc1)c1ccccc1")
-9.73
>>> observed_measurement("O=C(c1ccccc1)C(O)c1ccccc1 (stereo not drawn)")
-14.6
>>> observed_measurement("CCCl")
-2.43

Let's switch to this compound now.
Exam item: Using the record for `CCCC` , report its solvation free energy, 298 K.
Marked response: -2.03

====

assay: solvent given as SMILES; conditions: in OCCOCCOCCOCCO
Respond with yes (1) for solvation free energy, 298 K values of -3 kcal/mol and above, no (0) for values below.

# example entries with known answers
>>> class_label("CCCCCCCCCC")
"no (0)"
>>> class_label("C=CCCCC")
"yes (1)"
>>> class_label("CCCCCCCCCCCC")
"no (0)"
>>> class_label("CCS")
"yes (1)"

We next turn to a different compound, shown below.
Exam item: Threshold query (solvation free energy, 298 K >= -3 kcal/mol) on `CC1CCCCC1`
Marked response: yes (1)

====

experiment: solvent given as SMILES; conditions: in CCC(O)CC
Respond with True for solvation free energy, 298 K values of -2 kcal/mol and above, False for values below.

>>> class_label("CCCC")
"False"
>>> class_label("C=CC=C")
"False"
>>> class_label("CCCl")
"False"
>>> class_label("CC(C)C")
"True"

We next turn to a different molecule, shown below.
Exam item: Threshold query (solvation free energy, 298 K >= -2 kcal/mol) on `CCC`
Marked response: True

====

# solvation free energy, 298 K per record follows
assay: solvent given as SMILES; details: in CCCCO
Value expressed in kcal/mol; do not type the unit.

Exam item: Using the record for `CCCC` , report its solvation free energy, 298 K.
Marked response: -1.87

Exam item: Using the record for `c1ccc2c(c1)ccc1ccccc12` , report its solvation free energy, 298 K.
Marked response: -9.89

Exam item: Using the record for `CC(C)O` , report its solvation free energy, 298 K.
Marked response: -5.02

Exam item: Using the record for COc1ccc2cc(C(C)C(=O)O)ccc2c1 (centres undefined) , report its solvation free energy, 298 K.
Marked response: -16.6

Exam item: Using the record for `C(=Cc1ccccc1)c1ccccc1` , report its solvation free energy, 298 K.
Marked response: -10

Exam item: Using the record for `[HH]` , report its solvation free energy, 298 K.
Marked response: 1.56

Exam item: Using the record for `C=CC(=C)C` , report its solvation free energy, 298 K.
Marked response: -2.89

Exam item: Using the record for `CCN(CC)CC` , report its solvation free energy, 298 K.
Marked response: -4.85

Exam item: Using the record for `N` , report its solvation free energy, 298 K.
Marked response: -2.4

====

experiment: solvent given as SMILES; settings: in CNC(C)=O
# solvation free energy, 298 K per record follows
Value expressed in kcal/mol; do not type the unit.

Some solved cases for reference:
>>> observed_measurement("O")
-5.8
>>> observed_measurement("CCCOC(C)=O")
-4.54
>>> observed_measurement("CC1CCCCC1")
-3.59
>>> observed_measurement("CC(C)O")
-5.12
>>> observed_measurement("COC(C)(C)C")
-3.12

Exam item: Using the record for `ClC=C(Cl)Cl` , report its solvation free energy, 298 K.
Marked response: -4.35

Exam item: Using the record for `ClC(Cl)Cl` , report its solvation free energy, 298 K.
Marked response: -4.57

Exam item: Using the record for `CCOC(C)(C)C` , report its solvation free energy, 298 K.
Marked response: -3.4

Exam item: Using the record for `C=CCO` , report its solvation free energy, 298 K.
Marked response: -5.87

Exam item: Using the record for `C=CC(=C)C` , report its solvation free energy, 298 K.
Marked response: -2.74

Exam item: Using the record for `C1COCCO1` , report its solvation free energy, 298 K.
Marked response: -4.67

====

test: solvent given as SMILES; conditions: in CCOC(=O)c1ccccc1C(=O)OCC
# solvation free energy, 298 K per record follows
Value expressed in kcal/mol; do not type the unit.

Some solved cases for reference:
>>> observed_measurement("CC(C)O")
-3.75
>>> observed_measurement("CCCCCCCCCC")
-5.13
>>> observed_measurement("C=CCCCCCC")
-4.11
>>> observed_measurement("CC1CCCCC1")
-3.59
>>> observed_measurement("ClC(Cl)Cl")
-4.1

Exam item: Using the record for `C=CCCCC` , report its solvation free energy, 298 K.
Marked response: -2.96

Exam item: Using the record for `CCC1CCCCC1` , report its solvation free energy, 298 K.
Marked response: -4.24

====

# solvation free energy, 298 K per record follows
test: solvent given as SMILES; settings: in CCO
Value expressed in kcal/mol; do not type the unit.

Exam item: Using the record for `CC(C)C` , report its solvation free energy, 298 K.
Marked response: -1.64

Exam item: Using the record for `COc1ccccc1C(=O)O` , report its solvation free energy, 298 K.
Marked response: -11.5

Exam item: Using the record for `CCCCCCCCCC` , report its solvation free energy, 298 K.
Marked response: -5.35

Exam item: Using the record for `O=C(O)C=CC(=O)O` , report its solvation free energy, 298 K.
Marked response: -10.8

Exam item: Using the record for `ClC(Cl)Cl` , report its solvation free energy, 298 K.
Marked response: -4.12

Exam item: Using the record for `CC(C)O` , report its solvation free energy, 298 K.
Marked response: -5.27

Exam item: Using the record for `O=C1c2ccccc2-c2ccccc21` , report its solvation free energy, 298 K.
Marked response: -10.6

Exam item: Using the record for `CCN(CC)CC` , report its solvation free energy, 298 K.
Marked response: -4.87

Exam item: Using the record for `O=C(O)c1ccc(O)cc1` , report its solvation free energy, 298 K.
Marked response: -11.7

Exam item: Using the record for `O` , report its solvation free energy, 298 K.
Marked response: -5.05

Exam item: Using the record for COc1ccc2cc(C(C)C(=O)O)ccc2c1 (centres undefined) , report its solvation free energy, 298 K.
Marked response: -16.7

Exam item: Using the record for CN1C2CCC1CC(OC(=O)C(CO)c1ccccc1)C2 (centres undefined) , report its solvation free energy, 298 K.
Marked response: -18

Exam item: Using the record for `Cc1cccc(C(=O)O)c1` , report its solvation free energy, 298 K.
Marked response: -10.2

Exam item: Using the record for `CCC` , report its solvation free energy, 298 K.
Marked response: -1.24

Exam item: Using the record for `NC(N)=S` , report its solvation free energy, 298 K.
Marked response: -10.6

Exam item: Using the record for `O=C(O)c1ccccc1O` , report its solvation free energy, 298 K.
Marked response: -10.4

Exam item: Using the record for `C1COCCO1` , report its solvation free energy, 298 K.
Marked response: -4.68

Exam item: Using the record for `CCCC` , report its solvation free energy, 298 K.
Marked response: -1.91

Exam item: Using the record for `C(=Cc1ccccc1)c1ccccc1` , report its solvation free energy, 298 K.
Marked response: -9.99

====

assay: solvent given as SMILES; settings: in CC(=O)N(C)C
Entries are sorted into classes by solvation free energy, 298 K as follows: lower level: < -10 kcal/mol; middle level: ≥ -10 kcal/mol and < -4 kcal/mol; upper level: ≥ -4 kcal/mol

# example entries with known answers
>>> class_label("CCCOC(C)=O")
"middle level"
>>> class_label("ClC(Cl)Cl")
"middle level"
>>> class_label("CC(C)(C)Br")
"upper level"
>>> class_label("CCCl")
"upper level"
>>> class_label("c1ccc2c(c1)ccc1ccccc12")
"lower level"
>>> class_label("CCC1CCCCC1")
"middle level"
>>> class_label("CCCC")
"upper level"
>>> class_label("C=CC=C")
"upper level"

Exam item: Could you tell me which band `C1COCCO1` belongs to?
Marked response: middle level

Exam item: Could you tell me which band `O=C(O)c1ccc(O)cc1` belongs to?
Marked response: lower level

====

assay: solvent given as SMILES; conditions: in CCCCOCCCC
Entries are sorted into classes by solvation free energy, 298 K as follows: lowest: < -10 kcal/mol; middle: ≥ -10 kcal/mol and < -5 kcal/mol; highest: ≥ -5 kcal/mol

>>> class_label("Cc1cc(O)ccc1[N+](=O)[O-]")
"lowest"
>>> class_label("O=C(O)c1ccccc1O")
"middle"
>>> class_label("CCCC")
"highest"
>>> class_label("CCCCCl")
"highest"
>>> class_label("CCC1CCCCC1")
"middle"
>>> class_label("CCCCCCCCCCCCCCCCO")
"lowest"
>>> class_label("Nc1ccc([N+](=O)[O-])cc1")
"lowest"
>>> class_label("CCCCCCCCCCCCCCCO")
"lowest"

Exam item: Could you tell me which band `O=C1CCCC1` belongs to?
Marked response: highest

Exam item: Could you tell me which band O=C(c1ccccc1)C(O)c1ccccc1 (stereo unspecified) belongs to?
Marked response: lowest

Exam item: Could you tell me which band `O=C(O)c1ccccc1` belongs to?
Marked response: middle

Exam item: Could you tell me which band `Clc1c(Cl)c(Cl)c(Cl)c(Cl)c1Cl` belongs to?
Marked response: lowest

Exam item: Could you tell me which band `ClC(Cl)Cl` belongs to?
Marked response: highest

Exam item: Could you tell me which band `C1COCCO1` belongs to?
Marked response: highest

Exam item: Could you tell me which band `[HH]` belongs to?
Marked response: highest
